Sequence of the target: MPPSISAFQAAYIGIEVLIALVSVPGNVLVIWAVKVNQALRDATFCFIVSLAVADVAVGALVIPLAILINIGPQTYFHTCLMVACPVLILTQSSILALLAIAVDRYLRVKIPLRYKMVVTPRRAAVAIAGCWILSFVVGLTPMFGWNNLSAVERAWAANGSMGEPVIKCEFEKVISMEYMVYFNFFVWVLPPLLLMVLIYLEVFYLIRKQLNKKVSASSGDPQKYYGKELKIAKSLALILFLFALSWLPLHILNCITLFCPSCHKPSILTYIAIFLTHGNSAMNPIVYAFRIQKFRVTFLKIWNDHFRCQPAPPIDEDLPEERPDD
Provide the recorded Ki for the entries that follow.
One number for each entry, in nM.

Example entries begin here.
>>> measured_number("Nc1nc(Nc2ccccc2)nc2sc(-c3ccco3)nc12")
645
>>> measured_number("Nc1nc(NCCCc2ccccc2)nc2sc(-c3ccco3)nc12")
49
>>> measured_number("Nc1nc(NCCc2ccc(O)c(O)c2)nc2sc(-c3ccco3)nc12")
39
>>> measured_number("COc1ccc(CCNc2nc(N)c3nc(-c4ccco4)sc3n2)cc1OC")
221

Here is the next item to consider.
Q) Sample COc1ccc(CCNc2nc(N)c3nc(-c4ccco4)sc3n2)cc1 — what was its Ki?
A) 61

These entries and their values trace back to ChEMBL document CHEMBL3877301.
